# Tested on: HT-22
# Protocol summary: Neuroprotective activity in mouse HT22 cells assessed as inhibition of amyloid beta-induced cytotoxicity by measuring cell viability at 10 uM after 18 hrs by MTT assay
# Format: functional
# Applied conditions: HT-22, 18 h
Task for the reader: assign each of the following compounds its reported inhibition at 10 µM.
Could you kindly put the unit after your number?

inhibition at 10 µM reading for CC(C)(C)OC(=O)N1CCN(CCCOc2ccc(-c3nc4ccc(Oc5ccc(F)cc5)cc4o3)cc2)CC1 : 62.3%

Memo: CC(C)(C)OC(=O)N1CCN(CCCOc2ccc(-c3nc4ccc(Oc5ccc(Cl)cc5)cc4o3)cc2)CC1 , reported inhibition at 10 µM: 65%

inhibition at 10 µM reading for CC(C)(C)OC(=O)N1CCN(CCCOc2ccc(-c3nc4ccc(Oc5cccc(C(F)(F)F)c5)cc4o3)cc2)CC1 : 56.2%

Entry CC(C)OC(=O)N1CCN(CCCOc2ccc(-c3nc4ccc(Oc5ccc(Cl)cc5)cc4o3)cc2)CC1 — recorded inhibition at 10 µM = 54.4%

What the record says about CC(C)(C)OC(=O)N1CCN(CCOc2ccc(-c3nc4ccc(Oc5ccc(Cl)cc5)cc4o3)cc2)CC1 : inhibition at 10 µM is 50.6%

* * *

# Assay target: Advanced glycosylation end product-specific receptor (Homo sapiens) (UniProt Q15109)
# Sequence (Q15109 whole entry): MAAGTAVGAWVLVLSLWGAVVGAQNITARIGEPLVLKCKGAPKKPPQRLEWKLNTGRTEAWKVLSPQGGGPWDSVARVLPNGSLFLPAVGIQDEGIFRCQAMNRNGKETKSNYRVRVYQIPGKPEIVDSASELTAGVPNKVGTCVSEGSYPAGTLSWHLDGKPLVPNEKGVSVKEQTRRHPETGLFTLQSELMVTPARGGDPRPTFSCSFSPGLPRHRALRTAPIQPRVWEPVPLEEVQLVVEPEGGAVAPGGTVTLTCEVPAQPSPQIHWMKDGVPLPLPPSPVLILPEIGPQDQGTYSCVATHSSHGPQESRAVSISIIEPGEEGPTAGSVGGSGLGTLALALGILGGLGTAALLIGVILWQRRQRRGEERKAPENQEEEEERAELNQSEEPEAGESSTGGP
# Protocol summary: Inhibition of human RAGE-amyloid beta-42 interaction at 4 uM preincubated for 30 mins measured after 1 hr by FRET assay relative to control
Calls of active or inactive are those of the source. No cut-off for these calls is given here.
Measurement label: inhibition

Worked examples, 5 compounds total:
Clc1ccc(Oc2ccc3nc(-c4ccc(OCCN5CCCCC5)cc4)oc3c2)cc1
18.5%
CC(C)(C)OC(=O)N[C@@H]1CCN(CCCOc2ccc(-c3nc4ccc(Oc5ccc(Cl)cc5)cc4o3)cc2)C1
90.2%
CC(C)(C)OC(=O)N[C@H]1CCN(CCCOc2ccc(-c3nc4ccc(Oc5ccc(Cl)cc5)cc4o3)cc2)C1
16.6%
CC(C)(C)c1ccc(Oc2ccc3nc(-c4ccc(OCCCN5CC[C@@H](N)C5)cc4)oc3c2)cc1
inactive
CC(=O)N1CCC(COc2ccc(-c3nc4ccc(Oc5ccc(Cl)cc5)cc4o3)cc2)CC1
inactive

Clc1ccc(Oc2ccc3nc(-c4ccc(OCCCN5CCCC5)cc4)oc3c2)cc1 yielded inhibition of inactive

According to the records, this compound Clc1ccc(Oc2ccc3nc(-c4ccc(OCCCN5CCC(c6ccccc6)CC5)cc4)oc3c2)cc1 displays inhibition of inactive

get_value(item= N[C@@H]1CCN(CCCOc2ccc(-c3nc4ccc(Oc5ccc(Cl)cc5)cc4o3)cc2)C1 , readout=inhibition) returns 19.6%

The measured inhibition associated with CC(C)(C)C1CCN(CCCOc2ccc(-c3nc4ccc(Oc5ccc(Cl)cc5)cc4o3)cc2)CC1 reads 16.6%

Lab note: measured inhibition of Clc1ccc(Oc2ccc3nc(-c4ccc(OCCCN5CCN(c6ccccc6)CC5)cc4)oc3c2)cc1 was inactive

* * *

# Assay target: Advanced glycosylation end product-specific receptor (Homo sapiens) (UniProt Q15109)
# Protocol summary: Inhibition of human RAGE-amyloid beta-42 interaction at 4 uM preincubated for 30 mins measured after 1 hr by FRET assay relative to control
Measurement label: inhibition

// CCN(CC)CCCOc1ccc(-c2nc3ccc(Oc4ccc(C(F)(F)F)cc4)cc3o2)cc1 : inhibition value = 34.9%

Measured inhibition, N[C@H]1CCN(CCCOc2ccc(-c3nc4ccc(Oc5ccc(Cl)cc5)cc4o3)cc2)C1 : 29.9%

Looking up CCN(CC)CCCOc1ccc(-c2nc3ccc(Oc4ccc(Cl)cc4)cc3o2)cc1 , I see its inhibition listed as 4.9%

// field: inhibition; key: CC(C)(C)OC(=O)N1CCN(CCCOc2ccc(-c3nc4ccc(Oc5ccc(Cl)cc5)cc4o3)cc2)CC1 ; value = 40%

// inhibition lookup, molecule = CC(C)(C)OC(=O)N1CCN(CCOc2ccc(-c3nc4ccc(Oc5ccc(Cl)cc5)cc4o3)cc2)CC1 , result: 24.6%

Entry Fc1ccc(Oc2ccc3nc(-c4ccc(OCCCN5CCCCC5)cc4)oc3c2)cc1 — recorded inhibition = 30.3%

Sample CCN1CCC(Oc2ccc(-c3nc4ccc(Oc5ccc(Cl)cc5)cc4o3)cc2)CC1 ; inhibition observed: 15.3%

Consider CCN(CC)CCOc1ccc(-c2nc3ccc(Oc4ccc(Cl)cc4)cc3o2)cc1 . Its measured inhibition is 33.5%

* * *

# Protocol summary: Cytotoxicity against mouse HT22 cells assessed as cell viability at 10 uM after 18 hrs by MTT assay
# Assay type: cell-based, HT-22
# Applied conditions: HT22 cells, read-out: Activity
Lab note: cut-off is 30%. Strictly less in viability at 18 h, 10 µM is y. Exactly 30% or more is n.

Find out if reported viability at 18 h, 10 µM for CC(C)(C)OC(=O)N1CCN(CCCOc2ccc(-c3nc4ccc(Oc5ccc(F)cc5)cc4o3)cc2)CC1 is less than 30%
y

Please let me know if Clc1ccc(Oc2ccc3nc(-c4ccc(OCCCN5CCNCC5)cc4)oc3c2)cc1 shows viability at 18 h, 10 µM below 30%.
y

Consider the molecule CCN(CC)CCCOc1ccc(-c2nc3ccc(Oc4ccc(Cl)cc4)cc3o2)cc1 . Is its viability at 18 h, 10 µM strictly less than 30%?
n

Answer whether the molecule Clc1ccc(Oc2ccc3nc(-c4ccc(OCCCN5CCCCC5)cc4)oc3c2)cc1 has viability at 18 h, 10 µM strictly less than 30%
n

Lab note: confirm whether the reported viability at 18 h, 10 µM for this molecule is below 30%, equality not counting. molecule: CC(=O)N1CCC(COc2ccc(-c3nc4ccc(Oc5ccc(Cl)cc5)cc4o3)cc2)CC1
n

Item CC(C)(C)c1ccc(Oc2ccc3nc(-c4ccc(OCCCN5CC[C@@H](N)C5)cc4)oc3c2)cc1 : viability at 18 h, 10 µM beneath 30%, strictly?
y

Take the molecule CCN1CCC(COc2ccc(-c3nc4ccc(Oc5ccc(Cl)cc5)cc4o3)cc2)CC1 and say whether its viability at 18 h, 10 µM is less than 30%.
y

Determine whether this molecule shows viability at 18 h, 10 µM lower than 30% (ties excluded): Clc1ccc(Oc2ccc3nc(-c4ccc(OCC5CCNCC5)cc4)oc3c2)cc1
y

Regarding CC(C)(C)C1CCN(CCCOc2ccc(-c3nc4ccc(Oc5ccc(Cl)cc5)cc4o3)cc2)CC1 , kindly confirm whether its viability at 18 h, 10 µM is beneath 30%.
n

Could you please tell me whether viability at 18 h, 10 µM recorded for Clc1ccc(Oc2ccc3nc(-c4ccc(OCC5CCN(Cc6ccccc6)CC5)cc4)oc3c2)cc1 is less than 30%?
n

Dear colleague, could you confirm whether viability at 18 h, 10 µM of CCN(CC)CCCOc1ccc(-c2nc3ccc(Oc4ccc(C(C)(C)C)cc4)cc3o2)cc1 falls below 30%? Thanks.
n

Find out if reported viability at 18 h, 10 µM for CC(C)(C)c1ccc(Oc2ccc3nc(-c4ccc(OCCCN5CC[C@H](N)C5)cc4)oc3c2)cc1 is less than 30%
n

Regarding CN1CCC(Oc2ccc(-c3nc4ccc(Oc5ccc(Cl)cc5)cc4o3)cc2)CC1 , kindly confirm whether its viability at 18 h, 10 µM is beneath 30%.
n

Dear reviewer, please state whether CC(C)(C)OC(=O)N[C@@H]1CCN(CCCOc2ccc(-c3nc4ccc(Oc5ccc(Cl)cc5)cc4o3)cc2)C1 has viability at 18 h, 10 µM strictly beneath 30%.
n

viability at 18 h, 10 µM strictly < 30% for this molecule? CC(C)(C)OC(=O)N1CCN(CCCOc2ccc(-c3nc4ccc(Oc5ccc(C(F)(F)F)cc5)cc4o3)cc2)CC1
y

Please indicate whether the reported viability at 18 h, 10 µM of CCN1CCC(Oc2ccc(-c3nc4ccc(Oc5ccc(Cl)cc5)cc4o3)cc2)CC1 is strictly below 30%.
n

Please let me know if CC(C)N1CCC(Oc2ccc(-c3nc4ccc(Oc5ccc(Cl)cc5)cc4o3)cc2)CC1 shows viability at 18 h, 10 µM below 30%.
n

Is the reported viability at 18 h, 10 µM for CC(C)(C)OC(=O)N[C@H]1CCN(CCCOc2ccc(-c3nc4ccc(Oc5ccc(Cl)cc5)cc4o3)cc2)C1 strictly below 30%?
n

* * *

# Protocol summary: Cytotoxicity against mouse HT22 cells assessed as cell viability at 10 uM after 18 hrs by MTT assay
# Type: cell-based, HT-22
# Applied conditions: HT22 cells, read-out: Activity
Field: viability at 18 h, 10 µM. Provide a value for each of the compounds that follow.
Your answer should be a number followed by the unit of measure.

Given item FC(F)(F)c1cccc(Oc2ccc3nc(-c4ccc(OCCCN5CCCCC5)cc4)oc3c2)c1 , the value recorded as its viability at 18 h, 10 µM is 4.4%

Record Clc1ccc(Oc2ccc3nc(-c4ccc(OC5CCNCC5)cc4)oc3c2)cc1 , field viability at 18 h, 10 µM: 20.6%

Value of viability at 18 h, 10 µM reported for the compound CCN(CC)CCOc1ccc(-c2nc3ccc(Oc4ccc(Cl)cc4)cc3o2)cc1 is 85.2%

Value of measured viability at 18 h, 10 µM for the entry Clc1ccc(Oc2ccc3nc(-c4ccc(OCCN5CCCCC5)cc4)oc3c2)cc1 : 21.4%

Data point: FC(F)(F)c1ccc(Oc2ccc3nc(-c4ccc(OCCCN5CCCCC5)cc4)oc3c2)cc1 ; viability at 18 h, 10 µM = 93.4%

Consider CC(C)(C)OC(=O)N[C@H]1CCN(CCCOc2ccc(-c3nc4ccc(Oc5ccc(C(C)(C)C)cc5)cc4o3)cc2)C1 . Its measured viability at 18 h, 10 µM is 8.2%

// field: viability at 18 h, 10 µM; key: CC(C)(C)c1ccc(Oc2ccc3nc(-c4ccc(OCCCN5CCCCC5)cc4)oc3c2)cc1 ; value = 49.4%

The compound Clc1ccc(Oc2ccc3nc(-c4ccc(OCCCN5CCN(c6ncccn6)CC5)cc4)oc3c2)cc1 showed viability at 18 h, 10 µM equal to 25.1%

The recorded viability at 18 h, 10 µM for entry CN1CCN(CCCOc2ccc(-c3nc4ccc(Oc5ccc(Cl)cc5)cc4o3)cc2)CC1 equals 69.3%

Sure, the documented viability at 18 h, 10 µM for OCCN1CCN(CCCOc2ccc(-c3nc4ccc(Oc5ccc(Cl)cc5)cc4o3)cc2)CC1 is 3.3%
